Taken from patent US5250542A.

# inhibition at 0.1 µM listing for each entry below
Target: mu receptor (Rattus norvegicus)
Construct: rat whole brain minus cerebellum for mu was homogenized; from tissue; host or cells: brain of male Sprague Dawley rats, whole brain minus cerebellum, homogenate fraction
Sequence (P33535 whole entry): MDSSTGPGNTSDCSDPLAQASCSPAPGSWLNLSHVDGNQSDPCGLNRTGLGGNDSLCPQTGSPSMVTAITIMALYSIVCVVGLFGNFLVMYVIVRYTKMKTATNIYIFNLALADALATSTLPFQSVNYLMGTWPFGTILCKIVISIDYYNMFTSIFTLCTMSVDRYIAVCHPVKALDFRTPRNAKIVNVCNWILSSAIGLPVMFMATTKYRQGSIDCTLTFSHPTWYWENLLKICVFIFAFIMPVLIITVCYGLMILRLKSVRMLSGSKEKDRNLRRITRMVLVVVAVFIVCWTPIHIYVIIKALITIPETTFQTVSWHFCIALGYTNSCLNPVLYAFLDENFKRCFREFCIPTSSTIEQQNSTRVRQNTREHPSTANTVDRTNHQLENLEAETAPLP
Test: opioid receptor binding assay, [3H] NAL (tritiated naloxone), mu receptor
Parameters: species or system rat (Male Sprague Dawley), brain minus cerebellum
Details: 20 min, read-out: % displacement at 100 nM
Counter-ions that a name gives are not always drawn.
Please give a number only; it is taken to be in %.

Here's what some known entries look like.
MOLECULE	inhibition at 0.1 µM (%)
COC1CCC(OC(=O)CNC(=O)C(Cc2ccccc2)CN2CC[C@@](C)(c3cccc(O)c3)[C@@H](C)C2)CC1 (relative stereo)	97
Cc1oc(=O)oc1COC(=O)CNC(=O)C(Cc1ccccc1)CN1CC[C@@](C)(c2cccc(O)c2)[C@@H](C)C1 (relative stereo)	94

Qu. Data request, read-out inhibition at 0.1 µM, for CCNC(=O)CNC(=O)C(CC1CCCCC1)CN1CC[C@@](C)(c2cccc(O)c2)[C@@H](C)C1 (relative stereo) [Example 31, monohydrochloride monohydrate]
Ans. 97
